Target: Angiotensin II receptor (Oryctolagus cuniculus)
Test: Tested in vitro for angiotensin II induced antagonistic activity in rabbit aorta, expressed as pA2
Value Kind: pA2

Any idea what pA2 was measured for CCCCN(Cc1ccc(-c2ccccc2-c2nn[nH]n2)cc1)c1c(C(=O)O)ncn1C ?
6.46

# repeat for CCCCN(Cc1ccc(-c2ccccc2-c2nn[nH]n2)cc1)c1nnn(CCCC)c1C(=O)O
8.86

# repeat for CCCc1nc(N(CCC)Cc2ccc(-c3ccccc3-c3nn[nH]n3)cc2)sc1C(=O)O
7.43

# repeat for CCCN(Cc1ccc(-c2ccccc2-c2nn[nH]n2)cc1)c1ncc(C(=O)O)s1
7.87

# repeat for CCCCN(Cc1ccc(-c2ccccc2-c2nn[nH]n2)cc1)c1scnc1C(=O)O
8.2

# repeat for CCCCN(Cc1ccc(-c2ccccc2-c2nn[nH]n2)cc1)c1ncc(C(=O)O)s1
8.8

----------
Target: Angiotensin II receptor (Oryctolagus cuniculus)
Experiment: Tested in vitro for angiotensin II induced antagonistic activity in rabbit aorta, expressed as pA2
Value Kind: pA2

Any idea what pA2 was measured for CCCN(Cc1ccc(-c2ccccc2-c2nn[nH]n2)cc1)c1nn(C)cc1C(=O)O ?
7.94

# repeat for CCCCN(Cc1ccc(-c2ccccc2-c2nn[nH]n2)cc1)c1nnn(C)c1C(=O)O
8.6

# repeat for CCCCN(Cc1ccc(-c2ccccc2-c2nn[nH]n2)cc1)c1snnc1C(=O)O
8.36

# repeat for CCCN(Cc1ccc(-c2ccccc2-c2nn[nH]n2)cc1)c1nc(C)c(C(=O)O)s1
8.63

# repeat for CCCCCCN(Cc1ccc(-c2ccccc2-c2nn[nH]n2)cc1)c1ncc(C(=O)O)s1
7.34

# repeat for CCCN(Cc1ccc(-c2ccccc2-c2nn[nH]n2)cc1)c1nc(C(F)(F)F)c(C(=O)O)s1
7.56

# repeat for CCCN(Cc1ccc(-c2ccccc2-c2nn[nH]n2)cc1)c1nsnc1C(=O)O
9

Ref: ChEMBL document CHEMBL1127867
